# Protocol: Caspase-3/7 induction in HepG2 cells by small molecules, qHTS cell viability counter screen (AID 1346981); note: nearly all actives have a fitted effect of over 30% in size
# Condition details: CellTiter-Fluor fluorescence, 17 h; series mostly up to 92.4 µM
Results filed as inconclusive are left out. The source made the active and inactive calls. Calls come from the whole dose curve; as a rule, active = well fitted cell-killing curve with a large enough effect in the repeat runs; inconclusive = weak or mixed curves, or effect the other way; inactive = flat fitted curve, though single readings scatter.
Select the correct class. Options are active, inactive and nothing else.

Challenge: Call for entry O=C1NS(=O)(=O)c2ccccc21 :
Response given: inactive

Challenge: Call for entry Nc1ccc([N+](=O)[O-])cc1O :
Response given: active

Challenge: Call for entry Cc1ncc([N+](=O)[O-])n1C :
Response given: inactive

Challenge: Call for entry NC(CO)(CO)CO :
Response given: inactive

Challenge: Call for entry CC(=O)CC(c1ccccc1)c1c(O)c2ccccc2oc1=O (stereo not drawn) :
Response given: inactive

Challenge: Call for entry CCCCC1(COC(=O)CCC(=O)O)C(=O)N(c2ccccc2)N(c2ccccc2)C1=O :
Response given: inactive

Challenge: Call for entry C=CCc1ccc(O)c(OC)c1 :
Response given: inactive

Challenge: Call for entry O=C(O)CC(O)C(=O)O (stereo not drawn) :
Response given: inactive
